Data provenance is the supplement of paper PMC10065799.

# SYSTEM_TESTED: EPHB2 (UniProt P29323)
# Sequence (P29323 whole entry, looked up): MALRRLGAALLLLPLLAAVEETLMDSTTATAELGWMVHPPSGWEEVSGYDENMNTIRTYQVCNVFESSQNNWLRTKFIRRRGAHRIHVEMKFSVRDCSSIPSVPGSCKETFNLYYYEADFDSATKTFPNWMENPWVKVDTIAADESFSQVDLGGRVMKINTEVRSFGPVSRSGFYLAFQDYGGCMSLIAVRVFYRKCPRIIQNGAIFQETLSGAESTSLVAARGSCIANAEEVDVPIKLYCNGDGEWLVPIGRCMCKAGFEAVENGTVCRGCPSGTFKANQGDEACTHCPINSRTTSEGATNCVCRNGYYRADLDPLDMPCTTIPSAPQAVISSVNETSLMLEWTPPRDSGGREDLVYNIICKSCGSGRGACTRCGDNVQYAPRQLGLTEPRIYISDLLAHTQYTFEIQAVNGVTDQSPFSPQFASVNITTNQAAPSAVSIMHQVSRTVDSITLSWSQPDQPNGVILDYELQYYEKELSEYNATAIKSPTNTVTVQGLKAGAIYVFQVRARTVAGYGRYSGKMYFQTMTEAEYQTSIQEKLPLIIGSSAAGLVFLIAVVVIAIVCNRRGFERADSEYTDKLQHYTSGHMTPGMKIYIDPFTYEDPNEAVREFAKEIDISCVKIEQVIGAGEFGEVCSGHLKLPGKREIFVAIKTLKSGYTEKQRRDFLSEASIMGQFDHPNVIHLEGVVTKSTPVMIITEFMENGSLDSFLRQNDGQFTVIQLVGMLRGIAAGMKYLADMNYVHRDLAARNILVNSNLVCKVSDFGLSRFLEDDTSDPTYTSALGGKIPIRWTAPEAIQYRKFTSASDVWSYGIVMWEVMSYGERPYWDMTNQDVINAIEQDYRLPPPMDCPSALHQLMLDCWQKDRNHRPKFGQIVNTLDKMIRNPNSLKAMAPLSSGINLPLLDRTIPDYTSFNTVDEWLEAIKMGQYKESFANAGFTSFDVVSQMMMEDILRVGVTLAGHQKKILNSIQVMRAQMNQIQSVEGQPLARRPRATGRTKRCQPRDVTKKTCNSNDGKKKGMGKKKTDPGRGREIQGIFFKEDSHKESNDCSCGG
# PROTOCOL: phosphorylation enrichment, bacterial display (enrichment ratio); higher = better substrate or ligand; peptides without Tyr show the background;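 note: 11-residue human phosphosite peptides and single-mutation variants displayed on the E. coli surface, counted by deep sequencing, each peptide's frequency after selection divided by its frequency in the unselected input library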;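 note: frequency after pTyr selection over input frequency; kinase dosed for 20-30% of maximal phosphorylation in three min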
Tick yes if phosphorylation enrichment is 0.6 or greater. Tick no if phosphorylation enrichment is less than 0.6.

Solved entries:
# BIOSEQUENCE, LABEL
rows = [
    ("KVQVSYKGETK [HSPA1A_Y107]", "no"),
    ("LLTALYFISRG [KCNH2_Y780]", "yes"),
    ("SKEPYYVHCIK [MYO1D_Y586_R588H]", "yes"),
    ("GGSDRYGSLRP [MYLK_Y846]", "no"),
    ("SCRSKYVGLWG [KCNQ1_Y184_G179S]", "no"),
    ("GVRFIYTIDGS [DCX_Y105_YF]", "yes"),
]

API: above_or_equal(metric=phosphorylation enrichment, cutoff=0.6) for item TMKSHYMELYD [BBS2_Y644_R643H] yes

API: above_or_equal(metric=phosphorylation enrichment, cutoff=0.6) for item RIAFQYGVTDL [MYBPC3_Y340] yes

API: above_or_equal(metric=phosphorylation enrichment, cutoff=0.6) for item EEAAGYAQESQ [CAMKV_Y491] no

API: above_or_equal(metric=phosphorylation enrichment, cutoff=0.6) for item QLYGPYLRIHA [BSCL2_Y213_A212P] yes

API: above_or_equal(metric=phosphorylation enrichment, cutoff=0.6) for item NHFKIHNLCAE [PTEN_Y68_Y68H_YF] no

API: above_or_equal(metric=phosphorylation enrichment, cutoff=0.6) for item ATPKGYELDAS [OTC_Y223_P225L] no

API: above_or_equal(metric=phosphorylation enrichment, cutoff=0.6) for item KPPPTYESEEE [BRD4_Y599] yes

API: above_or_equal(metric=phosphorylation enrichment, cutoff=0.6) for item TVSQPYSFIEF [SEC22B_Y110_R108Q] no
